species: Sus scrofa; experiment: Enhancement of theophylline transdermal penetration through porcine ear skin using Franz diffusion cell in propylene glycol/water medium relative to control; format: ADME, organism-based; details: pig
propertyLabel: Ratio

Before answering, review these 5 worked examples.
{"molecule": "CCCCCCCCCCCCOC(=O)CCCCCNC(=O)OCCCCCC(=O)OCCCCCCCCCCCC", "reportedValue": 2.63}
{"molecule": "CCCCCCCCCCCCOC(=O)CCCCCNC(=O)OCC", "reportedValue": 1.52}
{"molecule": "CCCCCCCCCCCCOC(=O)CCCCCOC(=O)OCCCCCC(=O)OCCCCCCCCCCCC", "reportedValue": 3.7}
{"molecule": "CCCCCCCCCCCCOC(=O)OCCCCCC(=O)NCCCCCCCCCC", "reportedValue": 2.66}
{"molecule": "CCCCCCCCCCCCOC(=O)CCCCCCOC(=O)OCCCCCC(=O)OCCCCCCCCCCCC", "reportedValue": 1.24}

1. CCCCCCCCCCCCOC(=O)CCCCCNC(=O)OCCCCCCCCCCCC
2. CCCCCCCCCCCCNC(=O)CCC(C)OC(=O)OCCCCCCCCCCCC (stereo not given)
3. CCCCCCCCCCCCOC(=O)CCCCCN.CCCCCCCCCCCCOC(=O)CCCCCNC(=O)O [TRANSKARBAM 12]
IN: Hey, quick one: sort these by Ratio, largest value first please. To answer, write out the labels according to the requested order.
OUT: 3, 2, 1
(3: 22.8, 2: 1.11, 1: 0.47)

---

species: Sus scrofa; experiment: Enhancement of theophylline transdermal penetration through porcine ear skin using Franz diffusion cell in propylene glycol/water medium relative to control; type: ADME, organism-based; details: pig
propertyLabel: Ratio

Before answering, review these 2 worked examples.
{"compound": "CCCCCCCCCCCCNC(=O)CCCCCOC(=O)OCCCCCC(=O)NCCCCCCCCCCCC", "propertyLabel": "Ratio", "reportedValue": 3.29}
{"compound": "CCCCCCCCCCCCOC(=O)CCCCCOC(=O)OCCCCCCCCCCCC", "propertyLabel": "Ratio", "reportedValue": 1.13}

P. CCCCCCCCCCCCNC(=O)CCC(C)OC(=O)OCC (centres undefined)
Q. CCCCCCCCCCCCOC(=O)CCCCCOC(=O)OCC
IN: I need your help: which of the pair P , Q has higher Ratio? Use the label to indicate which entry you chose.
OUT: Q

---

species: Sus scrofa; assay: Enhancement of theophylline transdermal penetration through porcine ear skin using Franz diffusion cell in isopropylmyristate medium relative to control; format: ADME, organism-based; conditions: pig
propertyLabel: Ratio

P. CCCCCCCCCCCCOC(=O)CCCCCN.CCCCCCCCCCCCOC(=O)CCCCCNC(=O)O [TRANSKARBAM 12]
Q. CCCCCCCCCCCCNC(=O)CCCCCOC(=O)OCCCCCC(=O)NCCCCCCCCCCCC
IN: Param metric = Ratio; output whichever of P , Q has the minimum value. Use the label to indicate which entry you chose.
OUT: Q

---

species: Sus scrofa; experiment: Enhancement of theophylline transdermal penetration through porcine ear skin using Franz diffusion cell in isopropylmyristate medium relative to control; type: ADME, organism-based; details: pig
propertyLabel: Ratio

Before answering, review these 3 worked examples.
{"compound": "CCCCCCCCCCCCOC(=O)OCCCCCC(=O)NCCCCCCCCCC", "Ratio": 1.48}
{"compound": "CCCCCCCCCCCCOC(=O)CCCCCNC(=O)OCC", "Ratio": 1.01}
{"compound": "CCCCCCCCCCCCOC(=O)CCCCCNC(=O)OCCCCCCCCCCCC", "Ratio": 0.57}

a. CCCCCCCCCCCCNC(=O)CCC(C)OC(=O)OCCCCCCCCCCCC (centres undefined)
b. CCCCCCCCCCNC(=O)CCCCCOC(=O)OCC
IN: Param metric = Ratio; output whichever of a , b has the minimum value. Use the label to indicate which entry you chose.
OUT: a
(a: 1.15, b: 1.75)
